Target: CETP (Homo sapiens, UniProt P11597)
Construct: from tissue; host or cells: human plasma from normal volunteers
Experiment: CETP in vitro assay ([3H]CE-HDL transfer, Amersham kit TRKQ7005; modified protocol in human plasma)
Assay type: biochemical
Conditions: 1 μM compound; multiple values = multiple measurements
Property Label: inhibition at 1 µM (%)

Sample records with inhibition at 1 µM:
NCCN1c2cccc(-c3cccc(OC(F)(F)F)c3)c2OCC1c1cccc(OC(F)(F)C(F)F)c1 (stereo not shown) | 2
COc1ccc(C2COc3c(-c4cccc(OC(F)(F)F)c4)cccc3N2CC(O)C(F)(F)F)s1 (stereo not shown) | 19
OC(CF)CN1c2cccc(-c3cccc(OC(F)(F)F)c3)c2OC[C@@H]1c1cccc(OC(F)(F)C(F)F)c1 (stereo in doubt) [Compound 74] | 77
CC(C)(C)[Si](C)(C)OCCCN1c2cccc(-c3cccc(OC(F)(F)F)c3)c2OCC1c1cccc(OC(F)(F)C(F)F)c1 (stereo not shown) | 13
O[C@H](CN1c2cccc(-c3cc(F)c(F)c(F)c3)c2OC[C@@H]1c1cccc(OC(F)(F)C(F)F)c1)C(F)(F)F | 80

(A) O[C@@H](CN1c2cccc(-c3cc(F)cc(F)c3)c2OC[C@@H]1c1cccc(OC(F)(F)F)c1)C(F)(F)F
(B) OC(CF)CN1c2cccc(-c3cccc(OC(F)(F)F)c3)c2OC[C@@H]1c1cccc(OC(F)(F)C(F)F)c1 (stereo in doubt) [Compound 75]
// compare: A vs B , metric inhibition at 1 µM, want the smaller Field: selected label. Fill in the label of the entry you choose. B

----------
Target: CETP (Homo sapiens, UniProt P11597)
Construct: from tissue; host or cells: human plasma from normal volunteers
Sequence (P11597 18-493): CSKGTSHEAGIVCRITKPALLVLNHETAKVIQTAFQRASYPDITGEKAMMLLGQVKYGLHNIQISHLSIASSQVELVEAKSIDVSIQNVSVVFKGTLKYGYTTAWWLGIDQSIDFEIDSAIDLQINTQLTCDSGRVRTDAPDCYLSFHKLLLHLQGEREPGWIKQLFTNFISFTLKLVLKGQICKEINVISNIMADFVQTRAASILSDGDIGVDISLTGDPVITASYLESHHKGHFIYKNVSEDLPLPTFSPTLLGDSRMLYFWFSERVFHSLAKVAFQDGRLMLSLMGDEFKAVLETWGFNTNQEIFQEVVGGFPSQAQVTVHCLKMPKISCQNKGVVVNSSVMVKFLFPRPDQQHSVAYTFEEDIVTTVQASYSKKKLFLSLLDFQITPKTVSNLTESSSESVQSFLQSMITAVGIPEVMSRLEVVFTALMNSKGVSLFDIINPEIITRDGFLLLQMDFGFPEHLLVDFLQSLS
Test: CETP in vitro assay ([3H]CE-HDL transfer, Amersham kit TRKQ7005; modified protocol in human plasma)
Format: biochemical
Details: 1 μM compound; multiple values = multiple measurements; 1 µM
Property Label: % Inhibition @ 1 μM (%)

Solved entries:
OC(CN1c2cccc(-c3cccc(OC(F)(F)F)c3)c2OCC1c1cccc(SC(F)(F)F)c1)C(F)(F)F (stereo not shown) | 20
OC(CN1c2cccc(-c3cccc(OC(F)(F)F)c3)c2OCC1c1cccc(OC(F)(F)C(F)F)c1)C(F)(F)F (single isomer, unassigned) [Compound 1] | 96
O[C@@H](CN1c2cccc(-c3cc(F)c(F)c(F)c3)c2OC[C@@H]1c1cccc(OC(F)(F)C(F)F)c1)C(F)(F)F | 101

(A) C[C@@H](O)CN1c2cccc(-c3cccc(OC(F)(F)F)c3)c2OC[C@@H]1c1cccc(OC(F)(F)C(F)F)c1
(B) CCOc1cccc(C2COc3c(-c4cccc(OC(F)(F)F)c4)cccc3N2CC(O)C(F)(F)F)c1 (stereo not shown)
(C) OC(CN1c2cccc(-c3cccc(OC(F)(F)F)c3)c2OCC1c1ccoc1)C(F)(F)F (stereo not shown) [Compound 105]
(D) COc1ccsc1C1COc2c(-c3cccc(OC(F)(F)F)c3)cccc2N1CC(O)C(F)(F)F (stereo not shown) [Compound 60]
Order these by % Inhibition @ 1 μM, descending, and give the full ranking. Quick reminder: the answer is the labels in the order asked. A, B, C, D
